Data credit: paper PMC7118210

Test Method Notes: Single ascending dose and food-effect pharmacokinetics of naringin tablets in healthy humans
Format: in vivo, human
Recorded Conditions: both sexes, human, plasma, po, 40 mg, naringin 40 mg p.o. single dose
Result Type: AUC(0-inf) (ng·h/mL)

Given Smiles	Result Type	Reported Measurement
C[C@@H]1O[C@@H](O[C@H]2[C@H](Oc3cc(O)c4c(c3)O[C@H](c3ccc(O)cc3)CC4=O)O[C@H](CO)[C@@H](O)[C@@H]2O)[C@H](O)[C@H](O)[C@H]1O	AUC(0-inf)	9.99

* * *

Test Method Notes: Single-dose pharmacokinetics in rats (plasma, UHPLC/MS/MS)
Format: in vivo, Sprague Dawley rats
Recorded Conditions: both sexes, Sprague Dawley, rat, plasma, po, 42 mg/kg; read-out: MRT0-t

Given Smiles	MRT last, h
C[C@@H]1O[C@@H](O[C@H]2[C@H](Oc3cc(O)c4c(c3)O[C@H](c3ccc(O)cc3)CC4=O)O[C@H](CO)[C@@H](O)[C@@H]2O)[C@H](O)[C@H](O)[C@H]1O	1.1
